Experiment: recombinant UMI read abundance after kanamycin selection (control-corrected) (log10(CPM+1)); higher = more efficient recombination; extreme values may be limits of the assay; sequences stand for … in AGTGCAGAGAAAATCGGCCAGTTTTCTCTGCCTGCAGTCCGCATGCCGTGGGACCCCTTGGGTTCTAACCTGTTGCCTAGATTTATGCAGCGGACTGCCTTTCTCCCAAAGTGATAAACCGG…AGGTTGGTTTCACT; site = the 11-nt donor
Measurement Kind: recombinant UMI read abundance (log10)

CATCACACATGGACCGGTTTTCCCGGTAATCCGTATTTGGG (site CATCACACTCC) = 0.0249
TCATACTCATGGACCGGTTTTCCCGGTAATCCGTATTTGCT (site TCATACTCTAG) = 2.47
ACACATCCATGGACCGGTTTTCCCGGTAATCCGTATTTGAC (site ACGCATCCTGT) = 0
ATGTACTCATGGACCGGTTTTCCCGGTAATCCGTATTTGCA (site ATGTACTCTTG) = 2.96
TAACGAACATGGACCGGTTTTCCCGGTAATCCGTATTTGAC (site TAACGAACTGT) = 2.86
TGCGGTCCATGGACCGGTTTTCCCGGTAATCCGTATTTGAA (site TGCGGTCCTTT) = 0
AGTAAGCCATGGACCGGTTTTCCCGGTAATCCGTATTTGCA (site AGGAAGACTTG) = 0

----------
Experiment: recombinant barcode read abundance after kanamycin selection (control-corrected) (log10(CPM+1)); higher = more efficient recombination; sequences stand for … in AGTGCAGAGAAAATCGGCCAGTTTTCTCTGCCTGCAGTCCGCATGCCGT…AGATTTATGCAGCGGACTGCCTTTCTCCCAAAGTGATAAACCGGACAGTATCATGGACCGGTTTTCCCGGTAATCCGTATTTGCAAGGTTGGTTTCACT; site = the 11-nt target
Measurement Kind: recombinant barcode read abundance (log10)

AACTTAACTTGGGTTCTAACCTGTTGCCT (site AACTAAACTAG) = 0.236
CGTATGGCTTGGGTTCTAACCTGTTGCCT (site CGTGGGGCTAG) = 0.279
TATGCGGCTTGGGTTCTAACCTGTTGCCT (site TATGTGGCTAG) = 0.11
TCGCTACCTTGGGTTCTAACCTGTTGCCT (site TGACTACCTAG) = 0.157
TAGCCTTCTTGGGTTCTAACCTGTTGCAG (site TAGGCGTCTCT) = 0.0752
CACTTGCCTTGGGTTCTAACCTGTTGCCT (site CACTTGTCTAG) = 0.614
TAGTACCCTTGGGTTCTAACCTGTTGCTG (site TAGTAACCTAA) = 0.434
CCTGGACCTTGGGTTCTAACCTGTTGCTT (site CCTGGACCTAA) = 1.87

----------
# recombinant barcode read abundance (log10) values compiled below
Experiment: recombinant barcode read abundance after kanamycin selection (control-corrected) (log10(CPM+1)); higher = more efficient recombination; sequences stand for … in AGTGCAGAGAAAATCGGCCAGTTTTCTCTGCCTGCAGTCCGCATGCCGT…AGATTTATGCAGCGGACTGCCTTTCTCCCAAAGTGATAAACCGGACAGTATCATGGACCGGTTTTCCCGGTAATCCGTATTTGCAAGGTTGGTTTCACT; site = the 11-nt target
Measurement Kind: recombinant barcode read abundance (log10)

GGATTCACTTGGGTTCTAACCTGTTGCCA (site GGATACACTTG) = 0.0986
ATTAGTGCTTGGGTTCTAACCTGTTGCCT (site AGTAGTGCTAG) = 0.118
AGCTTATCTTGGGTTCTAACCTGTTGCCT (site AGCTTATCTAG) = 0.179
CTCGGAGCTTGGGTTCTAACCTGTTGCCT (site CTCGGATCTAG) = 0.311
GGTCCGGCTTGGGTTCTAACCTGTTGCGG (site GGTCCGGCTCC) = 1.61
GCATCTACTTGGGTTCTAACCTGTTGCTA (site CATAACGCTAG) = 0.185
CTTACAGCTTGGGTTCTAACCTGTTGCCT (site CTTACCGCTAG) = 0.138
CACCCACCTTGGGTTCTAACCTGTTGCCT (site CACCCACCTAG) = 1.66
CAAAATTCTTGGGTTCTAACCTGTTGCGT (site CAAAATTCTAC) = 0.703
AGCCAGGCTTGGGTTCTAACCTGTTGCGG (site AGCCAGGCTCC) = 1.76
CGGCACACTTGGGTTCTAACCTGTTGCCT (site CGTCACACTAG) = 0.00935
CTGCGTCCTTGGGTTCTAACCTGTTGCCT (site CTCCGTCCTAG) = 0.121
ACTTTCCCTTGGGTTCTAACCTGTTGCCT (site GCTTTGCCTAG) = 0.0175

----------
Assay: recombinant UMI read abundance after kanamycin selection (control-corrected) (log10(CPM+1)); higher = more efficient recombination; extreme values may be limits of the assay; sequences stand for … in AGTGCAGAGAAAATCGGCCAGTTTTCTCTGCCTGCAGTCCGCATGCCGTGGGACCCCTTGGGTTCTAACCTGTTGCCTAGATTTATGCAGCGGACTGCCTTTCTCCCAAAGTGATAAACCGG…AGGTTGGTTTCACT; site = the 11-nt donor
The entries below come with measured recombinant UMI read abundance (log10) values attached.
Measurement Kind: recombinant UMI read abundance (log10)

GATTATCCATGGACCGGTTTTCCCGGTAATCCGTATTTGCA (site GATTATCCTCG) = 0
GATTAACCATGGACCGGTTTTCCCGGTAATCCGTATTTGCT (site GATTAACCTAG) = 0
AGACGCACATGGACCGGTTTTCCCGGTAATCCGTATTTGAA (site AGACGCACTTT) = 1.43
CGGACATCATGGACCGGTTTTCCCGGTAATCCGTATTTGCA (site CGGACATCTTG) = 2.76
GCTACTGCATGGACCGGTTTTCCCGGTAATCCGTATTTGAC (site GCTACTGCTGC) = 0
CGGTCCTCATGGACCGGTTTTCCCGGTAATCCGTATTTGCA (site CGGTCCTCTTG) = 0
GGCCCGACATGGACCGGTTTTCCCGGTAATCCGTATTTGCT (site GGCCCGACTAG) = 1.49
TTGGTAACATGGACCGGTTTTCCCGGTAATCCGTATTTGAC (site TTGGTAACTGT) = 2.33
TGGCCCGCATGGACCGGTTTTCCCGGTAATCCGTATTTGGC (site TGGCCTGCTGC) = 0
CTCTCCTCATGGACCGGTTTTCCCGGTAATCCGTATTTGCC (site CTCTCCTCTGG) = 2.63
ATGCATGCATGGACCGGTTTTCCCGGTAATCCGTATTTGGT (site ATGCATGCTAC) = 1.67
ACGGACACATGGACCGGTTTTCCCGGTAATCCGTATTTGGT (site ACGGACACTAC) = 1.82

----------
Attribute: recombinant UMI read abundance (log10)
Test: recombinant UMI read abundance after kanamycin selection (control-corrected) (log10(CPM+1)); higher = more efficient recombination; extreme values may be limits of the assay; sequences stand for … in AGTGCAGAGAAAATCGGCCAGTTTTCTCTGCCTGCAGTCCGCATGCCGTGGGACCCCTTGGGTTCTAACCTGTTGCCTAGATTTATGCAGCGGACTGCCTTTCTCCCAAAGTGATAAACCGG…AGGTTGGTTTCACT; site = the 11-nt donor
Measurement Kind: recombinant UMI read abundance (log10)

CCGGGTGCATGGACCGGTTTTCCCGGTAATCCGTATTTGAT (site CCTGGTGCTAT) = 0.428
CAAAGTCCATGGACCGGTTTTCCCGGTAATCCGTATTTGTA (site AAAAGTCCTTA) = 0.474
CCCGGTCCATGGACCGGTTTTCCCGGTAATCCGTATTTGAA (site CCCGGTCCTTT) = 0.00816
TGAGCTGCATGGACCGGTTTTCCCGGTAATCCGTATTTGTG (site TTAGCTGCTCA) = 0.0107
TAGCCTTCATGGACCGGTTTTCCCGGTAATCCGTATTTGCT (site TAGCCTTCTAA) = 0.0333
CTATGTTCATGGACCGGTTTTCCCGGTAATCCGTATTTGTC (site CTATGTTCTGA) = 2.29
TACTAGGCATGGACCGGTTTTCCCGGTAATCCGTATTTGGT (site TGCTAGGCTAC) = 0.0175
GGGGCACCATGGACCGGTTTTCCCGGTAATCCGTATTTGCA (site GGGGCATCTTG) = 0
GCCTCGCCATGGACCGGTTTTCCCGGTAATCCGTATTTGTA (site GCCGCGCCTTA) = 0.00878
CTCTACACATGGACCGGTTTTCCCGGTAATCCGTATTTGCG (site CTCTACACTTG) = 0.829
